All figures here come from patent US20100075907A1.

target: hNMUR1 (Homo sapiens); test: 125I-hNMU-25 binding assay, human NMUR1 membranes; design: expressed in transfected cells; host or cells: HEK-293 FLP-In cells (pcDNA5); HEK-293/aeq17 lines (pIRES-puro) were also made; concentration or dose not given beside the values; details: Table 8, HEK-hR1, binding
Sequence (Q9HB89 whole entry): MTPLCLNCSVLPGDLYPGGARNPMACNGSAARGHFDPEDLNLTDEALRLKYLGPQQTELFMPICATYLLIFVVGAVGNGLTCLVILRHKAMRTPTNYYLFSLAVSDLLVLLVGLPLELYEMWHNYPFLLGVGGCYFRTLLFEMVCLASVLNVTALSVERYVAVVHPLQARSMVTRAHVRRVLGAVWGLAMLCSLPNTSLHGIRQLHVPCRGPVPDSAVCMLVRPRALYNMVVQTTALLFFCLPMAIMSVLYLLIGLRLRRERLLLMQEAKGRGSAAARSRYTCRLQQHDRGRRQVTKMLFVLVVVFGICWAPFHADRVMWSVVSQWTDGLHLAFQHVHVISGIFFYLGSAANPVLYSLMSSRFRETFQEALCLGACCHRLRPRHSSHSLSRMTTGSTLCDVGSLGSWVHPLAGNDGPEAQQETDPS
No end group written: not given here.
Exercise: state measured % Activity for each of the substances provided.
Numbers only, in %.

* H-YFGWRPRN-NH2 [Agonist C] | 100
* YFWRPRN-NH2 [Agonist A, YFWRPRN-CONH2] | 94
* H-FRVDEEFQSPFASQSRGYFWRPRN-NH2 [Agonist G] | 97

Consider the record given below.
Entry Ac-FFRPRN-NH2 [Agonist F, Ac-FFRPRN-CONH2] : reported % Activity = ?
30
